Values from patent US8901072B2

- Tested on: S. aureus ATCC 13709
- protocol-description: In vitro antibacterial susceptibility (MIC, broth microdilution)
- Format: cell-based
- condition-label: CAMHB + 50% human serum
property-name: MIC against S. aureus ATCC 13709, CAMHB + 50% human serum (mg/L)
Give bare numbers, in mg/L.

Query: Look at this molecule and give its reported MIC against S. aureus ATCC 13709, CAMHB + 50% human serum. CC(C)CC(C(=O)NC1C(=O)NC(CC(N)=O)C(=O)NC2C(=O)NC3C(=O)NC(C(=O)NC(C(=O)O)c4cc(O)cc(O)c4-c4cc3ccc4O)C(OC3CC(C)(N)C(O)C(C)O3)c3ccc(c(Cl)c3)Oc3cc2cc(c3OC2OC(CO)C(O)C(O)C2OC2CC(C)(NCc3ccc(-c4ccc(Cl)cc4)cc3)C(O)C(C)O2)Oc2ccc(cc2Cl)C1O)N(C)C(=O)OCOC(=O)CNCCCNCCCCNCCCN (stereo not shown)
Response: 1
